# Tested on: MCF7
# test_protocol: Antiproliferative activity against human MCF7 cells after 96 hrs by MTT assay
# Type: functional, cell-based
# experimental_setup: MCF7, 96 h
Entries annotated with measured IC50
Write it as a number; the unit µM goes unstated.

CC(C)=CCC/C(C)=C/CC/C(C)=C/CC[C@]1(C)CCc2cc(OC(=O)NS(=O)(=O)c3ccc(C)cc3)c(C)c(C)c2O1 :: 2.4
Cc1cc(C)c2c(c1C)O[C@](C)(CCCC(C)CCCC(C)CCCC(C)C)CC2 (some centres undefined) :: 329
CC(C)=CCC/C(C)=C/CC/C(C)=C/CC[C@]1(C)CCc2cc(OC(=O)NC(=O)Oc3ccccc3)cc(C)c2O1 :: 5.6
CC(C)=CCC/C(C)=C/CC/C(C)=C/CC[C@]1(C)CCc2c(C)c(OC(=O)NS(=O)(=O)c3ccc(C)cc3)c(C)c(C)c2O1 :: 6.1

Item: CC(C)=CCC/C(C)=C/CC/C(C)=C/CC[C@]1(C)CCc2cc(OC(=O)NS(=O)(=O)c3ccccc3)cc(C)c2O1 | IC50: 6.1
